Attribute: %Inh
- System: SIK
- Assay context: concentration: 1 μM, replicates: in singlicate; n = 1;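 further: KINOMEscan kinase panel screen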

| Molecule | Target or test system | %Inh, % |
| --- | --- | --- |
| COc1cc(Nc2ccnc3ccc(C(F)(F)F)cc23)cc(OC)c1OC | SIK | 31 |
| Nc1ncnc2c1ncn2-c1cccc2ccccc12 | SIK | 0 |
| CCc1ccc(-c2ccc3c(c2)-c2nn(C)cc2S(=O)(=O)N3C)cc1 | SIK | 0 |
| Cc1ccc(-c2ccc3c(ccc4sc5c(c43)NC[C@@H](C)N=C5N(C)C)n2)cn1 | SIK | 3 |
| CCn1c(-c2ccoc2)nc2cnccc21 | SIK | 0 |
| CCS(=O)c1ccc(-c2coc3ccc(-c4nnc(C)o4)cc23)cc1 (stereo not drawn) | SIK | 13 |
| Cc1nnc(-c2ccc3ncn(-c4ccc(S(C)=O)cc4)c3c2)o1 (stereo not drawn) | SIK | 20 |
| COc1ccc(-n2cnc3c(N)ncnc32)cc1 | SIK | 0 |
| Nc1ncnc2c1ncn2-c1cccc(F)c1 | SIK | 1 |

---

Attribute: %Inh
- Test system: ACVR2B
- Assay context: concentration: 1 μM, replicates: in singlicate; n = 1

| Compound | Output unit | %Inh |
| --- | --- | --- |
| COc1cc2nccc(Nc3ccc(OCc4ccc(NC(C)=O)cc4)cc3)c2cc1OC.Cl | % | 1 |
| CCC(=O)c1c(-c2ccccc2)c2cc(Cl)ccc2c(=O)n1Cc1ccc(C(=O)O)cc1 | % | 0 |
| CN(C)c1cc(-c2ccc3c(N)n[nH]c3c2)nc(N)n1 | % | 1 |
| COc1cc2ncn(-c3cc(OCc4ccncc4Br)c(C(N)=O)s3)c2cc1OC | % | 2 |
| COc1ccc(-c2coc3ccc(-c4nnc(SCc5cccc(C#N)c5)o4)cc23)cc1 | % | 0 |
| COc1ccc(Nc2nccc(N3CCC(NS(=O)(=O)c4ccc(NC(C)=O)cc4)C3)n2)cc1 (stereo not drawn) | % | 22 |

---

- Test system: SRPK1
- Assay context: concentration: 1 μM, replicates: in singlicate; n = 1
Attribute: %Inh
Measurement kind: %Inh (%)

| Molecule | Val |
| --- | --- |
| COc1cccc(C2=C(Nc3cccc(C(=O)O)c3)C(=O)NC2=O)c1 | 8 |
| O=C(NCc1cccs1)c1cc(C(=O)c2c(Cl)cccc2Cl)c[nH]1 | 0 |
| Nc1n[nH]c2nnc(-c3ccccc3)c(-c3ccccc3)c12 | 0 |
| CCCC(=O)Nc1n[nH]c2ncc(-c3cccc4ccccc34)cc12 | 16 |
| COc1ccc(-c2coc3ccc(-c4nnc(SCc5cccc(C#N)c5)o4)cc23)cc1 | 0 |
| COc1ccc(CNC(=O)NC2CCN(c3ccnc(Nc4ccc(F)cc4)n3)C2)cc1 (stereo not drawn) | 0 |

---

- System: CDKL1
- Assay context: concentration: 1 μM, replicates: in singlicate; n = 1

| Substance smiles | %Inh |
| --- | --- |
| COc1ccc(-c2cc3c(C)nc(N)nc3n([C@H]3CC[C@H](OCCO)CC3)c2=O)cn1 | 10% |
| COc1cc(OC)cc(-c2cc3cnc(N)nc3nc2NC(=O)NC(C)(C)C)c1 | 0% |
| CCc1nc(-c2cccc(C)c2)c(-c2ccncc2)s1 | 33% |

---

- System: MERTK
- Assay context: concentration: 1 μM, replicates: in singlicate; n = 1
Measurement kind: %Inh (%)

| Compound | Output unit | Val |
| --- | --- | --- |
| COc1cccc(-n2cnc3c(N)ncnc32)c1 [SKF-97416] | % | 0 |
| CCn1c(-c2ccoc2)nc2cnccc21 [SB-733887] | % | 5 |
| Cl.c1ccc(Cn2cnc3cc(Nc4ncnc5ccccc45)ccc32)cc1 [GW272142] | % | 10 |

---

- Tested on: RIPK4
- Assay context: concentration: 1 μM, replicates: in singlicate; n = 1
Attribute: %Inh
Measurement kind: %Inh (%)

| Compound | Target or test system | Measurement kind | Val |
| --- | --- | --- | --- |
| FC(F)(F)c1ccc(-c2ncn(CCCN3CCOCC3)c2-c2ccncc2)cc1 | RIPK4 | %Inh | 61 |
| CCC(=O)c1c(-c2ccccc2)c2cc(Cl)ccc2c(=O)n1Cc1cc(S(C)(=O)=O)n(CC(F)F)n1 | RIPK4 | %Inh | 0 |
| Cc1cc(Nc2nc(-c3cccc(C)n3)nc3ccccc23)ccn1 | RIPK4 | %Inh | 0 |
| Cl.c1ccc(Cn2cnc3cc(Nc4ncnc5ccccc45)ccc32)cc1 | RIPK4 | %Inh | 12 |
| COc1ccc(Nc2nccc(N3CCC(NS(=O)(=O)c4ccc(NC(C)=O)cc4)C3)n2)cc1 (centres unmarked) | RIPK4 | %Inh | 0 |
| CCc1nc(-c2cccc(C)c2)c(-c2ccncc2)s1 | RIPK4 | %Inh | 7 |
| COc1cccc(C2=C(N(C)c3ccccc3)C(=O)NC2=O)c1 | RIPK4 | %Inh | 19 |
| O=C(Nc1ccc2c(c1)OCO2)NC1CCN(c2ccnc(NCc3ccc(F)cc3)n2)CC1 | RIPK4 | %Inh | 0 |
| CCC(=O)c1c(-c2ccccc2)c2cc(Cl)ccc2c(=O)n1Cc1cc(S(C)(=O)=O)n(CC(N)=O)n1 | RIPK4 | %Inh | 0 |
| COC(=O)c1c(-c2ccccc2)c2cc(Br)ccc2c(=O)n1Cc1ccc(NC(=O)CCC(=O)O)cc1 | RIPK4 | %Inh | 20 |
| COc1ccc(-c2coc3ccc(-c4nnc(SCc5cccc(C#N)c5)o4)cc23)cc1 | RIPK4 | %Inh | 16 |
| CCC(=O)c1c(-c2ccccc2)c2cc(Cl)ccc2c(=O)n1Cc1cc(C(=O)NC2CC2)n(C)n1 | RIPK4 | %Inh | 0 |
| CN1C(=O)C(Nc2ccccc2)=C(c2ccccc2)C1=O | RIPK4 | %Inh | 5 |
| CCn1c(-c2ccoc2)nc2cnccc21 | RIPK4 | %Inh | 30 |
| COC(=O)c1c(-c2ccccc2)c2cc(Br)ccc2c(=O)n1Cc1ccc(S(C)(=O)=O)cc1 | RIPK4 | %Inh | 46 |
| Cc1nnc(-c2ccc3ncn(-c4ccc(S(C)=O)cc4)c3c2)o1 (centres unmarked) | RIPK4 | %Inh | 0 |
| CCC(=O)c1c(-c2ccccc2)c2cc(Cl)ccc2c(=O)n1Cc1ccc(C(=O)O)cc1 | RIPK4 | %Inh | 0 |
| Cc1cccc(-c2cc(-c3c[nH]nc3-c3ccccn3)ccn2)c1 | RIPK4 | %Inh | 12 |
| Cc1c(Cn2c(C)nn3c(=O)cc(N4CCO[C@H](C)C4)nc23)cccc1C(F)(F)F | RIPK4 | %Inh | 0 |
| O=C1NC(=O)C(c2ccccc2)=C1Nc1cccc(O)c1 | RIPK4 | %Inh | 1 |
| CCS(=O)(=O)c1ccc(OC)c(Nc2ncc(-c3ccc(F)cc3)o2)c1.Cl | RIPK4 | %Inh | 0 |
| Cc1ccc(Oc2ccc(Nc3ncnc4cc[nH]c34)cc2C)cn1 | RIPK4 | %Inh | 36 |
| COc1cccc(C2=C(Nc3cccc(C(=O)O)c3)C(=O)NC2=O)c1 | RIPK4 | %Inh | 0 |

---

- Tested on: RPS6KA5(Kin.Dom.1-N-terminal)
- Assay context: concentration: 1 μM, replicates: in singlicate; n = 1
Attribute: %Inh
Measurement kind: %Inh (%)

| Compound | Measurement kind | Val |
| --- | --- | --- |
| O=C(Nc1ccc2c(c1)OCO2)NC1CCN(c2ccnc(NCc3ccc(F)cc3)n2)CC1 | %Inh | 9 |
| COc1ccc(CNC(=O)NC2CCN(c3ccnc(Nc4ccc(F)cc4)n3)C2)cc1 (stereo not drawn) | %Inh | 13 |
| Cl.c1ccc(Cn2cnc3cc(Nc4ncnc5ccccc45)ccc32)cc1 | %Inh | 0 |

---

Attribute: %Inh
- System: GRK3
- Construct: gene ADRBK2
- Assay context: concentration: 1 μM, replicates: in singlicate; n = 1

| Substance smiles | Output unit | %Inh |
| --- | --- | --- |
| FC(F)(F)c1ccc(-c2ncn(CCCN3CCOCC3)c2-c2ccncc2)cc1 | % | 0 |
| COc1cc(OC)cc(-c2cc3cnc(N)nc3nc2NC(=O)NC(C)(C)C)c1 | % | 0 |
| Cc1cccc(-c2nc(Nc3ccc4c(cnn4C)c3)c3ccccc3n2)n1 | % | 5 |
| O=C(Nc1ccc2c(c1)OCO2)NC1CCN(c2ccnc(NCc3ccc(F)cc3)n2)CC1 | % | 0 |
| COc1cc2nccc(Nc3ccc(OCc4ccc(NC(C)=O)cc4)cc3)c2cc1OC.Cl | % | 17 |
| Nc1n[nH]c2ncc(-c3ccccc3)cc12 | % | 22 |
| Nc1ncnc2c1ncn2-c1cccc2ccccc12 | % | 0 |
| Cc1cc(Nc2nc(-c3cccc(C)n3)nc3ccccc23)ccn1 | % | 0 |

Origin of the recorded values: paper PMC5540273
